study-system: T1, human Claudin18.2 (human, UniProt P56856-2 1-261)
T1 construct: whole, on cells; Four-transmembrane protein, always presented on cells (transfected lines or NUGC-4 with endogenous expression); also called CLDN18.2
assay-explanation: flow cytometry on Ba/F3-Claudin18.2 cells, chimeric antibody
observation-type: EC50 (nM)
Write the number in nM without appending the unit.

Param item = chimeric antibody 6B9.22-hz00 (antibody, human IgG1, kappa, V domains shown, Mouse variable regions on human IgG1 / kappa constant regions; expressed in Expi293F) VH: QVQLQQSGAELVKPGASVKMSCKAFGYTFTSYPIEWMKQNHGKSLEWIGNFHPYNDDTKYNEKFKGKAKLTVEKSSSTVYLELSRLTSDDSAVYYCARTYYGNSFAYWGQGTLVTVSS VL: DIVMTQSPSSLTVTAGEKVTMSCKSSQSLLNSGNQKNYLTWYQQKPGQPPKLLIYWASSRDSGVPHRFTGSGSGTDFTLTISSVQAEDLAFYYCQNDYFYPFTFGAGTKLELKR ; retrieve measured EC50.
18.2
